System: K562
Test: NCI tumour cell line growth inhibition, 48 h
Active and inactive are the calls of the source. No stated cut-off is given here; in the data, active = GI50 up to about 1.1 µM and inactive = higher.
readout_kind: GI50

INSERT INTO results (compound, result) VALUES
  ('C=C1C(=O)O[C@@H]2C(=O)[C@@H](C)[C@@H]3C=CC(=O)[C@@]3(C)[C@@H](OC(=O)/C(C)=C\C)[C@H]12', '0.293 µM (active)'),
  ('Cc1cc(Cl)ccc1C1OC(=O)c2c1ccc1ccccc21 (configuration not stated)', '> 100 µM (inactive)'),
  ('COC(=O)/C=C(\S/C(=N\n1cc(C(=O)OC)c(C(=O)OC)c1-c1ccc(C)cc1)c1ccc(C)cc1)C(=O)OC', '1.43 µM (inactive)'),
  ('CSCCCNC(=O)c1csc(-c2csc(CCNC(=O)CNC(=O)CNC(=O)CNC(=O)OC(C)(C)C)n2)n1', '> 100 µM (inactive)'),
  ('Nc1ccc2c(O)cc(O)nc2n1', '> 100 µM (inactive)'),
  ('CO[C@@H]1[C@H](O)CC[C@]2(CO2)[C@H]1[C@@]1(C)O[C@@H]1CC=C(C)C', '> 200 µM (inactive)'),
  ('O=C(NCCNCCNCCNC(=O)c1cc(-c2ccccc2)nc2ccccc12)c1cc(-c2ccccc2)nc2ccccc12', '1.94 µM (inactive)'),
  ('CC(C)OCN1COCN/C1=N/C#N', '> 100 µM (inactive)'),
  ('O=C(Nc1nnc(S)[nH]1)C(=O)C(C(=O)c1ccc2ccccc2c1)C1OC(=O)c2ccccc21 (configuration not stated)', '21 µM (inactive)'),
  ('CN(C)/C=N\c1nc(=O)n(C2CCC(CO)O2)cc1F (configuration not stated)', '> 100 µM (inactive)'),
  ('O=S(=O)(O)c1ccc(/N=N/c2ccc(/N=N/c3c(O)ccc4ccc(S(=O)(=O)O)cc34)cc2)cc1', '> 100 µM (inactive)'),
  ('CCN(CC)CCC1CCCCN1CC(=O)N1c2ccccc2NC(=O)CC1C (configuration not stated)', '> 100 µM (inactive)'),
  ('Oc1ccc2c(c1)OCC1c3ccccc3OC21 (configuration not stated)', '41.2 µM (inactive)'),
  ('COc1cccc(C2c3cc4c(cc3OC(N3CCCC3)C2C)OCO4)c1O (configuration not stated)', '3.74 µM (inactive)'),
  ('Cc1cccc(C)c1NC(=S)NC=C(C(N)=O)C(N)=O', '> 100 µM (inactive)'),
  ('CCCN(CCC)C(=O)c1nc(N)nc(-c2ccc(OC)cc2)c1-c1ccc(OC)cc1', '84.1 µM (inactive)'),
  ('O=C(/C=C(\O)C(=O)O)/C=C(\O)c1ccccc1', '> 4.65 µM (inactive)'),
  ('O=c1[nH]c(=O)n(C2OC(CO)C(N(O)Cc3ccc(F)cc3)C2O)cc1Br (configuration not stated)', '> 100 µM (inactive)'),
  ('O=CN/C=C/c1ccc(O)c(O)c1', '> 100 µM (inactive)'),
  ('CCOC(=O)C(C)(C)/C=C\C(Cl)=C(Cl)Cl', '> 100 µM (inactive)'),
  ('CCOC(=O)Cn1sc2ncc([N+](=O)[O-])cc2c1=O', '2.84 µM (inactive)'),
  ('COC(=O)C1=C(c2ccc3c(c2)OCO3)OC(c2cc(OC)c(OC)c(OC)c2)C1 (configuration not stated)', '0.883 µM (active)'),
  ('CC(C)=NNC1=NC(C)(C)P(=O)(NNc2ncccn2)S1 (configuration not stated)', '> 100 µM (inactive)'),
  ('O=C(O)CN(CC(=O)O)Cc1cc2c(cc1O)Oc1cc(O)c(CN(CC(=O)O)CC(=O)O)cc1C21OC(=O)c2ccccc21', '> 100 µM (inactive)'),
  ('Cc1[nH]c2ccccc2c1/C=C/c1c(C)[nH]c2ccccc12', '> 100 µM (inactive)'),
  ('Cc1[nH]c(-c2ccccc2)c2nc(N(C)C)oc(=O)c12', '> 100 µM (inactive)'),
  ('COc1ccc(C2=CC(c3ccc4c(c3)OCO4)c3c(c4ccccc4oc3=O)O2)cc1OC (configuration not stated)', '0.415 µM (active)'),
  ('O=C1c2ccccc2NC(c2cc(Cl)cc(Cl)c2O)N1CCc1ccccn1 (configuration not stated)', '> 100 µM (inactive)'),
  ('Cc1c(C#N)c(N)[nH]c(=S)c1C#N', '> 100 µM (inactive)'),
  ('CN1C(c2ccccc2)=CC(=O)C(O)=C(c2ccccc2)S1(=O)=O', '> 100 µM (inactive)'),
  ('c1cncc(CSc2ncnc3[nH]cnc23)c1', '> 100 µM (inactive)'),
  ('CC12CC(=O)OC(Cc3ccccc31)O2 (configuration not stated)', '> 100 µM (inactive)'),
  ('CC(=O)OC1CC2C(=O)C(=O)C1(C)C2(C)C (configuration not stated)', '> 100 µM (inactive)'),
  ('Cc1cc(NS(=O)(=O)c2ccc(NC(=O)c3cccc4c(=O)c5ccccc5[nH]c34)cc2)no1', '36.1 µM (inactive)'),
  ('CNC(=O)NS(=O)(=O)c1ccc(C)cc1.NS(=O)O', '> 100 µM (inactive)'),
  ('CCOC(=O)C(C)Sc1nnc(COc2ccc(Cl)cc2)n1-c1ccccc1 (configuration not stated)', '13.6 µM (inactive)'),
  ('O=C1CCCCCC1CC(Sc1ccccc1)Sc1ccccc1 (configuration not stated)', '46.7 µM (inactive)');

====

Tested on: HL-60
Test: NCI tumour cell line growth inhibition, 48 h
The source made the active and inactive calls. Rule as the data show it: active = GI50 up to about 1.1 µM and inactive = higher.
Classes used: active, inactive

INSERT INTO assay_data (compound, system_under_test, discrete_label) VALUES
  ('Cc1cccc(CP(Cc2cccc(C)c2)CC2(Cp3c4ccccc4c4ccccc43)COC2)c1', 'HL-60', 'active'),
  ('CCOc1ncn(-c2ccc(NC(=S)Nc3cccc(O)c3)cc2)n1', 'HL-60', 'inactive'),
  ('CCC(NC(C)c1ccccc1)C(=O)c1ccc(OCc2ccccc2)c(OCc2ccccc2)c1 (stereo unspecified)', 'HL-60', 'inactive'),
  ('COC(=O)[C@H]1ON2O[C@H](OC3CCCC[C@@H]3c3ccccc3)C[C@@H]3CC[C@H]1[C@@]32C (stereo partly specified)', 'HL-60', 'inactive'),
  ('CN(C)CC/C(=N\Nc1c(Cl)cccc1Cl)c1ccccc1', 'HL-60', 'inactive'),
  ('CC(C)(C)C(O)CC(O)(C(F)(F)F)C(F)(F)F (stereo unspecified)', 'HL-60', 'inactive'),
  ('CC(=O)OCC1OC(SC2=NC(=O)/C(=C/c3ccccc3)S2)C(OC(C)=O)C(OC(C)=O)C1OC(C)=O (stereo unspecified)', 'HL-60', 'inactive'),
  ('CCc1cc(C)cc2[n+]1CC=C2.[O-][Cl+3]([O-])([O-])[O-]', 'HL-60', 'active'),
  ('COc1cccc(NC(=O)CC(=O)NN)c1', 'HL-60', 'inactive'),
  ('COC1=CC2=NCCc3n[nH]c(c32)C1=O', 'HL-60', 'active'),
  ('CCN(CC)CCN1CCN=C2c3cc(OC)ccc3Nc3c([N+](=O)[O-])ccc1c32', 'HL-60', 'active'),
  ('Nc1ccc2c(c1)Nc1c3ccccc3nc3cccc-2c13', 'HL-60', 'inactive'),
  ('CC(=O)NC1C(OCc2ccccc2)OC(CO)C(O)C1OC(C)C(=O)NC(C)C(=O)NC(CCC(=O)NCCCCNc1c2ccccc2nc2cccc([N+](=O)[O-])c12)C(N)=O (stereo unspecified)', 'HL-60', 'active'),
  ('CNc1ccc([N+](=O)[O-])c2c(NCCCN(C)C)ccnc12', 'HL-60', 'inactive'),
  ('C=CCSC(C)=O', 'HL-60', 'inactive'),
  ('C=C1CC[C@@H](Br)C(C)(C)[C@]12CCC(C)(O)C(Cl)C2 (stereo partly specified)', 'HL-60', 'inactive'),
  ('CCCCCCCCCCCCCCCc1nnc(S)[nH]1', 'HL-60', 'inactive'),
  ('CCc1cccc(C(C)C)c1NC(=O)/C(=N\NC(N)=O)C(C(=O)OC)c1cnc2ccccc2n1 (stereo unspecified)', 'HL-60', 'inactive'),
  ('O=C1c2ccccc2C(=O)N1C/C=N/NS(=O)(=O)c1ccc(Br)cc1', 'HL-60', 'inactive'),
  ('Clc1ccc(Cc2nc3ccccc3s2)c(Cl)c1', 'HL-60', 'inactive'),
  ('O=c1[nH]c(=O)n(C2OC(CO)C(N(O)Cc3ccc(F)cc3)C2O)cc1Br (stereo unspecified)', 'HL-60', 'inactive');

====

Tested on: SNB-78
Test: NCI tumour cell line growth inhibition, 48 h
The source made the active and inactive calls. Rule as the data show it: active = GI50 up to about 1.1 µM and inactive = higher.
Classes used: active, inactive

INSERT INTO assay_data (molecule, discrete_label) VALUES
  ('Cc1nn(C)c(=O)c2nn(-c3ccccc3)c(C)c12', 'inactive'),
  ('CC1=CC(=O)C(=O)C2=C1OC1(C2)C(C)CCC2C3(C)CCC(O)C(C)(C)C3CCC21C (centres undefined)', 'inactive'),
  ('COC(=O)CCC(=O)N1Cc2cc(C)ccc2N(C(=O)CCC(=O)OC)Cc2cc(C)ccc21', 'inactive'),
  ('CCN1/C(=C/C(C)=C/c2sc3ccccc3[n+]2CC)Sc2ccccc21', 'active'),
  ('O=C(/C=C(\O)C(=O)O)/C=C(\O)c1ccccc1', 'inactive'),
  ('Nc1c(S(=O)(=O)O)cc(S(=O)(=O)O)c2ccc(/N=N/c3ccc(/C=C/c4ccc(/N=N/c5ccc6c(S(=O)(=O)O)cc(S(=O)(=O)O)c(N)c6c5O)cc4S(=O)(=O)O)c(S(=O)(=O)O)c3)c(O)c12', 'inactive'),
  ('CCCCC(=O)OC[n+]1ccc2c(C)c3[nH]c4ccc(OC)cc4c3c(C)c2c1', 'inactive'),
  ('CCOC(=O)C(=O)Nc1nc2c(s1)C(=O)c1ccccc1C2=O', 'inactive'),
  ('CCOC(=O)[C@@]12C(C)=CC(=O)O[C@]1(C)C1C(=O)NC(=O)C12 (some centres undefined)', 'inactive');

Provenance of the data: ChEMBL document CHEMBL1201862
